# Test system: Streptococcus pneumoniae
# procedure_summary: Minimum inhibitory concentration of compound against Ery-R Streptococcus pneumoniae 303 was determined
# Format: functional
Catalogue of MIC readings, one per entry.

Some molecules with recorded MIC:
{"smiles_record": "CC[C@H]1OC(=O)[C@H](C)[C@@H](O[C@H]2C[C@@](C)(OC)[C@@H](O)[C@H](C)O2)[C@H](C)[C@@H](O[C@@H]2O[C@H](C)C[C@H](N(C)C)[C@H]2O)[C@](C)(O)C[C@@H](C)CN(C)[C@H](C)[C@@H](O)[C@]1(C)O", "test_target": "Streptococcus pneumoniae", "observable": "MIC", "assay_value": "> 64 µg/mL"}
{"smiles_record": "CC[C@H]1OC(=O)[C@H](C)C(=O)[C@H](C)[C@@H](O[C@@H]2O[C@H](C)C[C@H](N(C)C)[C@H]2O)[C@](C)(OC)C[C@@H](C)C(=O)[C@H](C)[C@H]2N(CCCCn3cnc(-c4cccnc4)c3)C(=O)O[C@]12C", "test_target": "Streptococcus pneumoniae", "observable": "MIC", "assay_value": "≤ 0.125 µg/mL"}
{"smiles_record": "CC[C@H]1OC(=O)[C@H](C)C(=O)[C@H](C)[C@@H](O[C@@H]2OC[C@@H](O)[C@H](N(C)C)[C@H]2O)[C@@](C)(OC)C[C@@H](C)C(=O)[C@H](C)[C@H]2N(CCCCn3cc(-c4ccccn4)nn3)C(=O)O[C@]12C", "test_target": "Streptococcus pneumoniae", "observable": "MIC", "assay_value": "16 µg/mL"}
{"smiles_record": "CC[C@H]1OC(=O)[C@@](C)(F)C(=O)[C@H](C)[C@@H](O[C@@H]2O[C@H](COCc3ccccc3)[C@@H](O)[C@H](N(C)C)[C@H]2O)[C@@](C)(OC)C[C@@H](C)C(=O)[C@H](C)[C@H]2N(CCCCn3cc(-c4cccc(N)c4)nn3)C(=O)O[C@]12C", "test_target": "Streptococcus pneumoniae", "observable": "MIC", "assay_value": "≤ 0.125 µg/mL"}
{"smiles_record": "CC[C@H]1OC(=O)[C@@](C)(F)C(=O)[C@H](C)[C@@H](O[C@@H]2O[C@H](CO)[C@@H](O)[C@H](N(C)C)[C@H]2O)[C@@](C)(OC)C[C@@H](C)C(=O)[C@H](C)[C@H]2N(CCCCn3cc(-c4cccc(N)c4)nn3)C(=O)O[C@]12C", "test_target": "Streptococcus pneumoniae", "observable": "MIC", "assay_value": "≤ 0.125 µg/mL"}
{"smiles_record": "CC[C@H]1OC(=O)[C@H](C)C(=O)[C@H](C)[C@@H](O[C@@H]2O[C@H](C)C[C@H](N(C)C)[C@H]2O)[C@@](C)(OC)C[C@@H](C)C(=O)[C@H](C)[C@H]2N(CCCCn3cc(-c4ccccn4)nn3)C(=O)O[C@]12C", "test_target": "Streptococcus pneumoniae", "observable": "MIC", "assay_value": "≤ 0.125 µg/mL"}

Exercise: Look up Streptococcus pneumoniae data: MIC of CC[C@H]1OC(=O)[C@@](C)(F)C(=O)[C@H](C)[C@@H](O[C@@H]2O[C@H](COCc3ccccc3)C[C@H](N(C)C)[C@H]2O)[C@@](C)(OC)C[C@@H](C)C(=O)[C@H](C)[C@H]2N(CCCCn3cc(-c4cccc(N)c4)nn3)C(=O)O[C@]12C , then report it.
Key: ≤ 0.125 µg/mL

====

# System: Streptococcus pneumoniae
# procedure_summary: Minimum inhibitory concentration of compound against Ery-S Streptococcus pneumoniae 3773 was determined
# Format: functional
observable: MIC (µg/mL)
Express it in µg/mL; write the number only.

Exercise: Please report MIC for the following molecule: CC[C@H]1OC(=O)[C@H](C)C(=O)[C@H](C)[C@@H](O[C@@H]2O[C@H](C)C[C@H](N(C)C)[C@H]2O)[C@](C)(OC)C[C@@H](C)C(=O)[C@H](C)[C@H]2N(CCCCn3cnc(-c4cccnc4)c3)C(=O)O[C@]12C
Key: 1

Exercise: Please report MIC for the following molecule: CC[C@H]1OC(=O)[C@@](C)(F)C(=O)[C@H](C)[C@@H](O[C@@H]2O[C@H](COCc3ccccc3)C[C@H](N(C)C)[C@H]2O)[C@@](C)(OC)C[C@@H](C)C(=O)[C@H](C)[C@H]2N(CCCCn3cc(-c4cccc(N)c4)nn3)C(=O)O[C@]12C
Key: 4

Exercise: Please report MIC for the following molecule: CC[C@H]1OC(=O)[C@@](C)(F)C(=O)[C@H](C)[C@@H](O[C@@H]2O[C@H](COCc3ccccc3)[C@@H](O)[C@H](N(C)C)[C@H]2O)[C@@](C)(OC)C[C@@H](C)C(=O)[C@H](C)[C@H]2N(CCCCn3cc(-c4cccc(N)c4)nn3)C(=O)O[C@]12C
Key: 8

====

# Tested on: Streptococcus pneumoniae
# procedure_summary: Minimum inhibitory concentration of compound against Ery-S Streptococcus pneumoniae ATCC 49619 was determined
# Assay type: functional
Catalogue of MIC readings, one per entry.

Some compounds with recorded MIC:
{"compound": "CC[C@H]1OC(=O)[C@H](C)C(=O)[C@H](C)[C@@H](O[C@@H]2O[C@H](CO)[C@@H](O)[C@H](N(C)C)[C@H]2O)[C@@](C)(OC)C[C@@H](C)C(=O)[C@H](C)[C@H]2N(CCCCn3cc(-c4ccccn4)nn3)C(=O)O[C@]12C", "MIC": "≤ 0.125 µg/mL"}
{"compound": "CC[C@H]1OC(=O)[C@H](C)C(=O)[C@H](C)[C@@H](O[C@@H]2OC[C@@H](O)[C@H](N(C)C)[C@H]2O)[C@@](C)(OC)C[C@@H](C)C(=O)[C@H](C)[C@H]2N(CCCCn3cc(-c4ccccn4)nn3)C(=O)O[C@]12C", "MIC": "4 µg/mL"}
{"compound": "CC[C@H]1OC(=O)[C@H](C)C(=O)[C@H](C)[C@@H](O[C@@H]2O[C@H](C)C[C@H](N(C)C)[C@H]2O)[C@@](C)(OC)C[C@@H](C)C(=O)[C@H](C)[C@H]2N(CCCCn3cc(-c4ccccn4)nn3)C(=O)O[C@]12C", "MIC": "≤ 0.125 µg/mL"}

Exercise: Please report MIC for the following compound: CC[C@H]1OC(=O)[C@H](C)[C@@H](O[C@H]2C[C@@](C)(OC)[C@@H](O)[C@H](C)O2)[C@H](C)[C@@H](O[C@@H]2O[C@H](C)C[C@H](N(C)C)[C@H]2O)[C@](C)(O)C[C@@H](C)CN(C)[C@H](C)[C@@H](O)[C@]1(C)O [AZITHROMYCIN]
Key: ≤ 0.125 µg/mL

====

Catalogue of MIC readings, one per entry.
# Tested on: Streptococcus pyogenes
# procedure_summary: Minimum inhibitory concentration of compound against Ery-R Streptococcus pyogenes 1721 was determined
# Assay type: functional

Some molecules with recorded MIC:
{"molecule": "CC[C@H]1OC(=O)[C@@](C)(F)C(=O)[C@H](C)[C@@H](O[C@@H]2O[C@H](CO)[C@@H](O)[C@H](N(C)C)[C@H]2O)[C@@](C)(OC)C[C@@H](C)C(=O)[C@H](C)[C@H]2N(CCCCn3cc(-c4cccc(N)c4)nn3)C(=O)O[C@]12C", "MIC": "> 32 µg/mL"}
{"molecule": "CC[C@H]1OC(=O)[C@@](C)(F)C(=O)[C@H](C)[C@@H](O[C@@H]2O[C@H](COCc3ccccc3)[C@@H](O)[C@H](N(C)C)[C@H]2O)[C@@](C)(OC)C[C@@H](C)C(=O)[C@H](C)[C@H]2N(CCCCn3cc(-c4cccc(N)c4)nn3)C(=O)O[C@]12C", "MIC": "8 µg/mL"}
{"molecule": "CC[C@H]1OC(=O)[C@H](C)C(=O)[C@H](C)[C@@H](O[C@@H]2O[C@H](C)C[C@H](N(C)C)[C@H]2O)[C@](C)(OC)C[C@@H](C)C(=O)[C@H](C)[C@H]2N(CCCCn3cnc(-c4cccnc4)c3)C(=O)O[C@]12C [TELITHROMYCIN]", "MIC": "64 µg/mL"}
{"molecule": "CC[C@H]1OC(=O)[C@H](C)[C@@H](O[C@H]2C[C@@](C)(OC)[C@@H](O)[C@H](C)O2)[C@H](C)[C@@H](O[C@@H]2O[C@H](C)C[C@H](N(C)C)[C@H]2O)[C@](C)(O)C[C@@H](C)CN(C)[C@H](C)[C@@H](O)[C@]1(C)O [AZITHROMYCIN]", "MIC": "> 64 µg/mL"}

Let us examine a further case.
Exercise: Please report MIC for the following molecule: CC[C@H]1OC(=O)[C@@](C)(F)C(=O)[C@H](C)[C@@H](O[C@@H]2O[C@H](COCc3ccccc3)C[C@H](N(C)C)[C@H]2O)[C@@](C)(OC)C[C@@H](C)C(=O)[C@H](C)[C@H]2N(CCCCn3cc(-c4cccc(N)c4)nn3)C(=O)O[C@]12C
Key: 8 µg/mL

These measurements were taken from ChEMBL document CHEMBL1141993.
